- tested target: Acetylcholinesterase (Rattus norvegicus)
- Construct: Aliquots of this supernatant was diluted in the ratio of 1:10 and used as a source of enzyme for the assay; 10% homogenate with 1% Triton X-100, 100,000 x g supernatant
- Sequence (P37136 32-614): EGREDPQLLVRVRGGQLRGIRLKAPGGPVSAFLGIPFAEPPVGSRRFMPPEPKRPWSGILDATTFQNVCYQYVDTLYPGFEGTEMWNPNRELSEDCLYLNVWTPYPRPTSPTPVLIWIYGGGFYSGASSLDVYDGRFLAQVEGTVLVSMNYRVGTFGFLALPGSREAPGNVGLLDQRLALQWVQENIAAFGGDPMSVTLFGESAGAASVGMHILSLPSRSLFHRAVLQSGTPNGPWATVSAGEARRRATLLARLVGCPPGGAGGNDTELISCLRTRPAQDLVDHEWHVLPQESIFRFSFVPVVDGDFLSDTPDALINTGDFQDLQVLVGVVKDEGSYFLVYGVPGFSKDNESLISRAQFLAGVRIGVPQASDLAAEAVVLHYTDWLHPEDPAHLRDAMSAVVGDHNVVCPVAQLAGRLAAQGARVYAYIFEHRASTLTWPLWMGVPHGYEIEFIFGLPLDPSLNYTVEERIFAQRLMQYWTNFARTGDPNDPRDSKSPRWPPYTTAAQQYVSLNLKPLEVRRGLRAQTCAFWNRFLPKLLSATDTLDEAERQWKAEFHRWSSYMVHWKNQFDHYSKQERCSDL
- test protocol: Inhibitive effect on acetylcholinesterase activity (Ellman assay, rat brain homogenate supernatant)
experimental readout: IC50 (µM)
Express it in µM; write the number only.

Enter reported IC50 observed with Acetylcholinesterase (Rattus norvegicus) for `O=C(Nc1ccccc1Cl)Oc1ccc2c(c1)CCCN2Cc1ccccc1`
3.31
